# Method Notes: compound binding in COS7 lysate, probe aLAP1, primary screen, cell lysate, small-molecule microarray (AID 1124);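 further: lysate comes from COS7 cells expressing LAP1 and is applied at 0.3 µg/mL; score merges spot fluorescence near 667 nm with signal-to-noise over triplicate slides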
# Conditions Used: probe aLAP1, fluorescence, higher = more signal
Metric Name: composite z-score
Field format: numeric only.

Completed entries (count: 2):
>>> recorded_value("CCCNC(=O)OC[C@H]1O[C@H](CCON=C(C)CCN2CCc3nc(-c4ccccc4)c(-c4ccccc4)cc3C2)C=C[C@@H]1Oc1ccc(OC)cc1")
0.354
>>> recorded_value("CO[C@H]1COC(=O)CC=C[C@@H](C)COC(=O)[C@@H](OCc2ccccc2)C=C[C@@H]1C")
0.106

Q: What does the record list as composite z-score for COc1ccc(COC(=O)NN=C2C[C@@H](O)[C@@H](O)[C@@H]3[C@@H]4C(=O)N(C(C)(C)C)C(=O)[C@@H]4CC[C@H]23)cc1 ?
Result: 1.51

Q: What does the record list as composite z-score for CO[C@H]1COC(=O)[C@H](C)NC(=O)CC=C[C@@H](C)[C@H](OC)COC(=O)CC=C[C@@H]1C ?
Result: -0.796

Q: What does the record list as composite z-score for CC(C)CON=C1C[C@@H](O)[C@@H](O)[C@@H]2[C@@H]3C(=O)N(c4cccc(Oc5ccccc5)c4)C(=O)[C@@H]3CC[C@H]12 ?
Result: -0.216

Q: What does the record list as composite z-score for C#CCCCON=C1C[C@@H](O)[C@@H](O)[C@@H]2[C@@H]3C(=O)N(C4CCCCC4)C(=O)[C@@H]3CC[C@H]12 ?
Result: 0.806

Q: What does the record list as composite z-score for C[C@@H](c1ccccc1)N1C(=O)[C@H]2[C@H]3[C@H](O)[C@H](O)CC(=O)[C@@H]3CC[C@H]2C1=O ?
Result: 0.727
